For each record, write down the corresponding viability, T/C.
# Test system: 439559-082-T-J2-PDC complex spheroid growth;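 note: spheroids exposed to agents for 7 days starting day 3 after seeding; percent of DMSO vehicle control viability with 100% = vehicle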
# Assay Text: Anticancer human tumor 439559-082-T-J2-PDC patient-derived colon adenocarcinoma cell line growth inhibition [Asc]
# Run Parameters: second compound 0.00316 µM; first compound 0.0316 µM; stronger effect = lower value
Numbers only, in %.

INSERT INTO results (molecule, recorded_endpoint, test_value) VALUES
  ('C#Cc1c(F)ccc2cc(O)cc(-c3ncc4c(N5CC6CCC(C5)N6)nc(OCC56CCCN5CC(F)C6)nc4c3F)c12 (stereo not given) + CNC(C)C(=O)NC1CN(S(=O)(=O)c2cccc(S(=O)(=O)N3CCC4CCC(C(=O)NC(c5ccccc5)c5ccccc5)N4C(=O)C(NC(=O)C(C)NC)C3)c2)CCC2CCC(C(=O)NC(c3ccccc3)c3ccccc3)N2C1=O', 'viability, T/C', 103),
  ('NC1CCC(NC2CC2c2ccccc2)CC1 (stereo not given) + CNC(C)C(=O)NC1CN(S(=O)(=O)c2cccc(S(=O)(=O)N3CCC4CCC(C(=O)NC(c5ccccc5)c5ccccc5)N4C(=O)C(NC(=O)C(C)NC)C3)c2)CCC2CCC(C(=O)NC(c3ccccc3)c3ccccc3)N2C1=O', 'viability, T/C', 98.4),
  ('C=CC(=O)N1CCN(c2nc(=O)n(-c3c(C)ccnc3C(C)C)c3nc(-c4c(O)cccc4F)c(F)cc23)C(C)C1 (stereo not given) + CNC(C)C(=O)NC1CN(S(=O)(=O)c2cccc(S(=O)(=O)N3CCC4CCC(C(=O)NC(c5ccccc5)c5ccccc5)N4C(=O)C(NC(=O)C(C)NC)C3)c2)CCC2CCC(C(=O)NC(c3ccccc3)c3ccccc3)N2C1=O', 'viability, T/C', 103),
  ('C=C(F)C(=O)N1CCN(c2nc(OCC3CCCN3C)nc3c2CCN(c2cccc4cccc(Cl)c24)C3)CC1CC#N (stereo not given) + CNC(C)C(=O)NC1CN(S(=O)(=O)c2cccc(S(=O)(=O)N3CCC4CCC(C(=O)NC(c5ccccc5)c5ccccc5)N4C(=O)C(NC(=O)C(C)NC)C3)c2)CCC2CCC(C(=O)NC(c3ccccc3)c3ccccc3)N2C1=O', 'viability, T/C', 101);

Given Cn1ncnc1[C@H]1c2n[nH]c(=O)c3cc(F)cc(c23)N[C@@H]1c1ccc(F)cc1 + CNC(C)C(=O)NC1CN(S(=O)(=O)c2cccc(S(=O)(=O)N3CCC4CCC(C(=O)NC(c5ccccc5)c5ccccc5)N4C(=O)C(NC(=O)C(C)NC)C3)c2)CCC2CCC(C(=O)NC(c3ccccc3)c3ccccc3)N2C1=O , state its recorded viability, T/C.
56.8

This collection of values is drawn from PubChem BioAssay AID1963423.
